# System: MS2 coat protein
# method-description: apparent KD of MS2 coat protein; higher = weaker reporter binding
# test-conditions: Eterna round: R107; input ligand: arginine 13.2 mM
Listing: apparent KD of MS2 coat protein of selected sequences

ordered-residues	apparent KD of MS2 coat protein (nM)
AUACGGCGGUAAAAUCAGAGAGUAAAAGAUACCAGCAAUAAUAAAUGCCCUUGGCAGCUUCUGACAUGAGGAUCACCCAUGUAAA [theeternabot_exclusion_MS2_Theo_A_49]	15.7
AUUGACGUUGCGGCCGCCACUAGGCGUUCCCGGACAUGAGGAUCACCCAUGUGCUAGAGUGUAACUAGGACCGGGUAACCUCAGC [Verevean]	124
AGCAACAAGUCGGCCGCCACUCAUUUAACAUGAGGAUCACCCAUGUGAAUAACAUGAUUGUAAUAGAGGACCGGGACAGUUGCAU [JR_SSTryptoB_Sub014]	62.1

* * *

# Tested on: MS2 coat protein
# method-description: apparent KD of MS2 coat protein; higher = weaker reporter binding
# test-conditions: Eterna round: R107; input ligand: tryptophan 2.4 mM
Listing: apparent KD of MS2 coat protein of selected sequences

ordered-residues	apparent KD of MS2 coat protein, nM
CUCCCGUGGUCGGCCGCCACUGGAGGCCUCGCGCGACAUGAGGAUCACCCAUGUUGGCCCGGCGUCAGGACCGGGAUCGCGUGAG [#1 Same State - Tryptophan B Attempt #9 (HarryS)]	10.8
UAAAAUAAAAGGGUGAAGGUAUAAACAGAUACCAGCCAGAUAACUGGCCCUUGGCAGCUGAAUGACAUGAGGAUCACCCAUGUCU [TheoAS 21 #OpenEnded #Ms2Late]	14.5
AUCGUACCUGAUGAUACCAGCAAUUGCUCGUAACAUGAGGAUCACCCAUGUGACCAGUGAUGCCCUUGGCAGCAUGGUCGGUGCA [Same State - Theophylline B (Freestyle 21)]	150

* * *

# Tested on: MS2 coat protein
# method-description: apparent KD of MS2 coat protein; designed switch direction (-1 OFF switch, 1 ON switch): -1; higher = weaker reporter binding
# test-conditions: input ligand: none
readout-label: apparent KD of MS2 coat protein (nM)

ordered-residues	value-observed
GGUUGGCGAGGAUAUACAUGAGGAUCACCCAUGUGGUCCUGAAAAAAAAAAAACCUUUGUAGAAGGCGCGGGUC [salish99_ex3_r4_035] (Eterna round: R97, puzzle: Exclusion 3)	150
UAGCAGCGAGGAUAUACAGACAGGUCCAAUACGUGUCUUGGACUUGAGGAUCACCCAAGUAGAAGGCGCCACAG [salish99_ex2_r4_602] (Eterna round: R97, puzzle: Exclusion 2)	62
UUUUUGGUAGGAUAUACAUGAGGAUCACCCAUGUCCCACCCGUUACCUAUGACCAUAUGUAGAAGGACCAUUUC [Exy#11] (Eterna round: R97, puzzle: Exclusion 3)	21.3
AAAUAGCAUGAGGAUAUCGAAUUAUAUAUAGUACGAGAAGGCAUGACAUGAGGAUCACCCAUGUUUUGUUGGGA [EX6 #1] (Eterna round: R97, puzzle: Exclusion 6)	57.5
GUACUGACAGGAUAUACAUGAGGAUCACCCAUGUGCCCUUAAAGAUGCAAAGCAUCAAGUAGAAGGGUCUGUAC [Omei Ex3 Model Bachelor's Dilema v21] (Eterna round: R97, puzzle: Exclusion 3)	40.5
AGUCAGUCAGGAUAUCAAAUCCGUGGACCUUACGAUGCGGCUGAGAAGGGACAUGAGGAUCACCCAUGUUGGGU [Eternabot (L2) Solution 27] (Eterna round: R97, puzzle: Exclusion 4)	66.5
AUAUUGUGAGGAUAUGAACUUACUAUCGAAAGAUACUAAGUUCAGAAGGCACAUGAGGAUCACCCAUGUUUCUC [Long static hairpin v19] (Eterna round: R97, puzzle: Exclusion 4)	76.1
ACAUGAGGAUCACCCAUGUAAACAUAAUGGCUCAUGUAGAGUCAGGAUAUGCGUGGCUAACAAUCGCAGAAGGGACAAGACUGG [Deportation 29 - Jieux - Exclusion NG 3] (Eterna round: R96, puzzle: Exclusion NG 3)	24.5
AGCCGGUCGUGAGGAUAUUACAUGAGGAUCACCCAUGUCGACGGGCUACGGGCGGUCGGCUCGUGUGAGAAGGCGCGCCCGGAA [Tibibiza] (Eterna round: R96, puzzle: Exclusion NG 2)	17.6
ACAUGUGUUGUAGGAUAUAGGAUACAUGAGGAUCACCCAUGUGGAUUCAUGUCAAUGGAAACGUCCUAGAAGGACGACAACAUG [Ex NG2 #22] (Eterna round: R96, puzzle: Exclusion NG 2)	65
CGAUGCAAAGUAAGGAUAUGCUUCCGGAAACGGAGGCAGAAGGUACAUGAGGAUCACCCAUGUUAAAAGCAUCG [Explosion 3 - Jieux - Brourd's mod of Exclusion 4] (Eterna round: R97, puzzle: Brourd's mod of Exclusion 4)	14.2
GCAGCAUAGUCGGAAUACGACAUACAUGAGGAUCACCCAUGUCAGGAUAUGGUCUGGAUUACAGGCCAGAAGGGACGAAGCUGC [Eli exng3 - 006] (Eterna round: R96, puzzle: Exclusion NG 3)	21.5
CCUUUGUGAGGAUAUCGUUGGCCAGACAUGAGGAUCACCCAUGUGGCUGGAACUCAUGGACGAGAAGGCACCUCUU [Eternabot (L2) Solution 52] (Eterna round: R97, puzzle: Exclusion 5)	399
ACAUGAGGAUCACCCAUGUCCGGCUGGUCUGUUUCGGCUGUCGAGGAUAUAGUUCGGUGUUCGCGCUAGAAGGCGGGAGCUGGC [Aenatbe mod 59] (Eterna round: R96, puzzle: Exclusion NG 3)	82.4
CAUGCACAUGAGGAUCACCCAUGUGAGGAUAUUUAGCGUCAGUAAUCAAUAGACAGCAGAAGAAGGCACCUGGU [Eternabot (L2) Solution 73] (Eterna round: R97, puzzle: Exclusion 1)	29.4
CAGCUGUCAGGAUAUCGUGCAUACAACGAAAGUUCUAUGUGCGAGAAGGGACAUGAGGAUCACCCAUGUAAACG [Omei Ex4 A26] (Eterna round: R97, puzzle: Exclusion 4)	57.4
ACAUGAGGAUCACCCAUGUACAGGGUUUAGUUUCAUCGUUUGAAGGAUAUACACCGUUAGUUGUCGUAGAAGGUCACAGAUUGG [JR_ExcNG3_Sub009] (Eterna round: R96, puzzle: Exclusion NG 3)	155
UAAAACAGAGGAUAUCGCUUGGUAAACAUGAGGAUCACCCAUGUGGUCUCGGUGGAUACCCGAGAAGGCUGAGCGU [Xeraisbece] (Eterna round: R97, puzzle: Exclusion 5)	19
